Examples of compounds with documented %Inh follow.
test system: RIOK3; details: concentration: 1 μM, replicates: in singlicate; n = 1;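 further: KINOMEscan kinase panel screen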
Parameter: %Inh (%)

- Nc1nc(-c2ccccn2)c(-c2ccnc3ccccc23)s1: 27
- COc1ccc(NC(=O)Nc2ccc(C)c(-c3ccc(C(=O)Nc4ccncc4)cc3)c2)cc1: 8
- N#Cc1ccc(Oc2ccc(Nc3ncnc4cc[nH]c34)cc2Cl)cc1: 1
- c1ccc(-c2ccc3c(-c4ccnc(Nc5ccc6c(c5)OCCO6)n4)cnn3n2)cc1: 12
- CC(=O)Nc1n[nH]c2ncc(-c3ccccc3)cc12: 31
- Fc1cccc(COc2ccc(Nc3ncnc4sc(-c5ccc[nH]5)cc34)cc2Cl)c1: 40
- O=c1cc(N2CCOCC2)nc2n(Cc3cccc(Cl)c3)ccn12: 0
- COc1ccc(Nc2nccc(N3CCC(NC(=O)Nc4ccc5c(c4)OCO5)C3)n2)cc1 (stereo not drawn): 35
- CS(=O)(=O)CCNCc1nc(-c2ccc3ncnc(Nc4ccc(OCc5cccc(F)c5)c(Cl)c4)c3c2)cs1.Cl: 17
- Cl.c1ccc(Cn2ncc3cc(Nc4ncnc5ccccc45)ccc32)cc1: 19
- CSc1nn2c(=O)cc(N3CCOCC3)nc2n1Cc1cccc(Cl)c1Cl: 19
- CCc1nc(-c2cccc(N(C)S(=O)(=O)c3ccccc3)c2)c(-c2ccnc(Nc3ccc(N4CCN(C(C)=O)CC4)nc3)n2)s1: 15
- CC(C)N1CCC(n2cnc(-c3ccc(F)cc3)c2-c2ccnc(N)n2)CC1: 60
- COc1cc2c(Nc3cccc(NC(=O)c4ccccc4)c3)ncnc2cc1OCCCN1CCOCC1: 24
- Cl.Cl.c1ccc(-c2cc3ccncc3cc2OC2CCNCC2)cc1: 45
- Clc1cccc(-c2nc(Nc3ccncc3)c3ccccc3n2)c1: 46
- COC(=O)c1cccc(NC(=O)NCCNc2ccnc(Nc3ccc(F)cc3)n2)c1: 31
- CNc1nccc(-c2c(-c3ccc(F)cc3)ncn2C2CCN(C)CC2)n1: 3
